The measurements presented in this section are drawn from the RNAGym collection of RNA variant scans (doi:10.7554/elife.80360).

B1: CPEB3 Ribozyme (parent)
chain: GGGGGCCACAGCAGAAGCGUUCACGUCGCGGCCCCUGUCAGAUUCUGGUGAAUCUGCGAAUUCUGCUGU

- Variants of: B1
- EXPERIMENT_SUMMARY: self-cleavage, relative activity (ratio to wild type); higher = more cleavage; co-transcriptional

VARIANT_ANNOTATION: C22A A42G
self-cleavage: 0.207
--
VARIANT_ANNOTATION: G31C C63A
self-cleavage: 0.233
--
VARIANT_ANNOTATION: G25U A59C
self-cleavage: 0.217
--
VARIANT_ANNOTATION: C24G
self-cleavage: 0.499
--
VARIANT_ANNOTATION: A52C G56U
self-cleavage: 0.741
--
VARIANT_ANNOTATION: G14C C54G
self-cleavage: 0.251
--
VARIANT_ANNOTATION: G25U U53C
self-cleavage: 0.112
--
VARIANT_ANNOTATION: G30U U38A
self-cleavage: 0.201
--
VARIANT_ANNOTATION: C6A A52U
self-cleavage: 0.559
--
VARIANT_ANNOTATION: G11C U43A
self-cleavage: 0.357
--
VARIANT_ANNOTATION: G17U A52G
self-cleavage: 0.585
--
VARIANT_ANNOTATION: C57U U61C
self-cleavage: 0.371
--
VARIANT_ANNOTATION: A16C C29U
self-cleavage: 0.192
--
VARIANT_ANNOTATION: G1U G31U
self-cleavage: 0.0933
--
VARIANT_ANNOTATION: A15C U26C
self-cleavage: 0.73
--
VARIANT_ANNOTATION: C6U G68U
self-cleavage: 1.02
--
VARIANT_ANNOTATION: C33G A51G
self-cleavage: 0.739
--
VARIANT_ANNOTATION: C7G G65U
self-cleavage: 0.217
--
VARIANT_ANNOTATION: G14A A42C
self-cleavage: 0.343
--
VARIANT_ANNOTATION: G11U C18G
self-cleavage: 0.0807
--
VARIANT_ANNOTATION: A51G U69G
self-cleavage: 1.03
--
VARIANT_ANNOTATION: C24U U64A
self-cleavage: 0.42
--
VARIANT_ANNOTATION: G17A C22G
self-cleavage: 0.127
--
VARIANT_ANNOTATION: G30U G48A
self-cleavage: 0.455
--
VARIANT_ANNOTATION: C7A G65C
self-cleavage: 0.314
--
VARIANT_ANNOTATION: G2A C27U
self-cleavage: 0.0441
--
VARIANT_ANNOTATION: G2C U62G
self-cleavage: 0.0405
--
VARIANT_ANNOTATION: G2A U43A
self-cleavage: 0.139
--
VARIANT_ANNOTATION: G41A G68U
self-cleavage: 0.913
--
VARIANT_ANNOTATION: G3U G56C
self-cleavage: 0.0723
--
VARIANT_ANNOTATION: G1A A52C
self-cleavage: 0.113
--
VARIANT_ANNOTATION: U44C G48U
self-cleavage: 1.02
--
VARIANT_ANNOTATION: A23G C57G
self-cleavage: 0.332
--
VARIANT_ANNOTATION: U20G U55G
self-cleavage: 0.106
--
VARIANT_ANNOTATION: G1U G68U
self-cleavage: 0.173
--
VARIANT_ANNOTATION: U20G U67G
self-cleavage: 0.152
--
VARIANT_ANNOTATION: G1A U62A
self-cleavage: 0.0846
--
VARIANT_ANNOTATION: U46C G47A
self-cleavage: 0.682
--
VARIANT_ANNOTATION: U55G U61C
self-cleavage: 0.293
--
VARIANT_ANNOTATION: C7G U62G
self-cleavage: 0.244
--
VARIANT_ANNOTATION: A15U U21G
self-cleavage: 0.157
--
VARIANT_ANNOTATION: G50C U61G
self-cleavage: 0.526
--
VARIANT_ANNOTATION: G4U A23G
self-cleavage: 0.502
--
VARIANT_ANNOTATION: C22U G65A
self-cleavage: 0.216
--
VARIANT_ANNOTATION: C12U G47C
self-cleavage: 1.03
--
VARIANT_ANNOTATION: G25A U43C
self-cleavage: 0.288
